- Tested on: ABCB1 over-expressing Jurkat-DNR cells
- Protocol text: Chemoreversal assay: potentiation of daunorubicin (DNR) killing
- Assay type: cell-based
- Condition set: constant 100 nM DNR, varied inhibitor dose, listed as reversan, read-out: CR50 ABCB1
Measurement label: pEC50
Scale explanation: pEC50 corresponds to minus log10 of a concentration expressed in moles per litre.

## Input Provide pEC50, system ABCB1 over-expressing Jurkat-DNR cells, entry O=C(NCCCN1CCOCC1)c1cnn2c(-c3ccccc3)cc(-c3ccccc3)nc12 [Compound 6, reference compound]
## Output 5.66

###

- Protocol text: Flow cytometric kinetic solubility
- Type: physicochemical
- Condition set: primary assay screening buffer (6.7% FBS in PBS, 1% DMSO), plasma or biological fluid, kinetic from dmso stock; read-out: kinetic solubility, no particulate noted at
Measurement label: solubility kinetic

## Input Kindly indicate its recorded solubility kinetic. Item: "O=C(c1ccoc1)N1CCN(c2cc(-c3ccco3)nc3cc(-c4ccccc4)nn23)CC1"
## Output ≥ 3 µg/mL
